Would you mind telling me the reported AC50 of each entry?
- target: Sodium-dependent noradrenaline transporter (Homo sapiens, UniProt P23975); note: assay procedure not described here
- Sequence (P23975 whole entry): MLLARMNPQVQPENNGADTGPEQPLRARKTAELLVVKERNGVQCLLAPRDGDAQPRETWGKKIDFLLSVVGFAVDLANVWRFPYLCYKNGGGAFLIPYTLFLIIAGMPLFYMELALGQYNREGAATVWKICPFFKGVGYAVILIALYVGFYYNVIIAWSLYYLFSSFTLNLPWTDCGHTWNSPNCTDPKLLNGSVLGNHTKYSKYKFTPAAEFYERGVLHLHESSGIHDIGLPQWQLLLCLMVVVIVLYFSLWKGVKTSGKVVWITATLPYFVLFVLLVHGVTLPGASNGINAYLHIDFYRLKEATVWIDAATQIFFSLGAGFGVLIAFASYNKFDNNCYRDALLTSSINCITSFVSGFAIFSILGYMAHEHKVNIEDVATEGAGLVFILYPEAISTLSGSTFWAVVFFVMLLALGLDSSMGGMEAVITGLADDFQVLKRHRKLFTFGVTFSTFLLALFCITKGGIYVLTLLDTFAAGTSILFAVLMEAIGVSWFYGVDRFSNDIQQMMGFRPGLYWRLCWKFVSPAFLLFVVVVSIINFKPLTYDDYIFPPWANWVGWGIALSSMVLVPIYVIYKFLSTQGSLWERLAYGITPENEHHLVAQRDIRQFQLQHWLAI

Problem: Please report the recorded AC50 for CCC(C)C(CC)C(N)=O (configuration not stated) [VALNOCTAMIDE] .
Solution: > 30 µM

Problem: // returns reported AC50 for input CC(C)COCC(CN(Cc1ccccc1)c1ccccc1)N1CCCC1 (configuration not stated)
Solution: 21 µM

Problem: Can you share its AC50? I mean this molecule: COc1cc2nc(N3CCN(C(=O)C4CCCO4)CC3)nc(N)c2cc1OC (configuration not stated)
Solution: > 10 µM

Problem: Can you look up the measured AC50 of COc1ccccc1OCCNCC(O)COc1cccc2[nH]c3ccccc3c12 (configuration not stated) for me?
Solution: 3.99 µM

Problem: Bench note: what AC50 did `CN1C(C(=O)Nc2ccccn2)=C(O)c2ccccc2S1(=O)=O` show?
Solution: > 10 µM

Problem: So what does the record say about AC50 for OC1(c2ccc(Cl)cc2)c2ccccc2C2=NCCN21 (configuration not stated) ?
Solution: 0.027 µM

Problem: Name the reported AC50 value associated with the molecule `C/N=C(\NC)NCc1ccccc1`
Solution: > 30 µM

Problem: Could you tell me which AC50 is on file for `CC(=O)O[C@H](CC(=O)[O-])C[N+](C)(C)C` ?
Solution: > 30 µM

Problem: Value lookup for AC50; key = NC1CCN(c2nc3c(cc2F)c(=O)c(C(=O)O)cn3-c2ccc(F)cc2F)C1 (configuration not stated)
Solution: > 30 µM

Problem: Could you tell me which AC50 is on file for COc1cc2ncnc(Nc3ccc(F)c(Cl)c3)c2cc1NC(=O)/C=C/CN1CCCCC1 [DACOMITINIB ANHYDROUS] ?
Solution: 14 µM

Problem: Quick one: AC50 of CC(=O)OCC(=O)[C@@]1(O)[C@H](C)C[C@H]2[C@@H]3CCC4=CC(=O)C=C[C@]4(C)[C@@]3(F)[C@@H](O)C[C@@]21C [DEXAMETHASONE ACETATE] ?
Solution: > 30 µM

Problem: Request the reported AC50 associated with `C[C@H]1c2cccc(O)c2C(=O)C2=C(O)[C@]3(O)C(=O)C(C(N)=O)=C(O)[C@@H](N(C)C)[C@@H]3[C@@H](O)[C@@H]21`
Solution: > 10 µM

Problem: Field request: AC50 | item: `CC[C@@H]([C@H](C)O)n1ncn(-c2ccc(N3CCN(c4ccc(OC[C@@H]5CO[C@@](Cn6cncn6)(c6ccc(F)cc6F)C5)cc4)CC3)cc2)c1=O`
Solution: > 30 µM

Problem: Data request, read-out AC50, for CCCCC(=O)O[C@]1(C(=O)CO)[C@@H](C)C[C@H]2[C@@H]3CCC4=CC(=O)C=C[C@]4(C)[C@@]3(F)[C@@H](O)C[C@@]21C [BETAMETHASONE VALERATE]
Solution: > 30 µM

Problem: Look at this molecule and give its reported AC50. `O=C1CN=C(c2ccccc2)c2cc([N+](=O)[O-])ccc2N1`
Solution: > 10 µM

Problem: GET /values?readout=AC50&item= CCC(=O)O[C@H]1CC[C@H]2[C@@H]3CCC4=CC(=O)CC[C@]4(C)[C@H]3CC[C@]12C [TESTOSTERONE PROPIONATE]
Solution: > 10 µM

Problem: AC50 lookup needed for `C=C[C@H]1C[N@@]2CC[C@H]1C[C@@H]2[C@@H](O)c1ccnc2ccc(OC)cc12` , thanks.
Solution: > 30 µM
